- System Name: factor Xa (Homo sapiens, UniProt P00742)
- Sequence (P00742 235-488 limits assumed): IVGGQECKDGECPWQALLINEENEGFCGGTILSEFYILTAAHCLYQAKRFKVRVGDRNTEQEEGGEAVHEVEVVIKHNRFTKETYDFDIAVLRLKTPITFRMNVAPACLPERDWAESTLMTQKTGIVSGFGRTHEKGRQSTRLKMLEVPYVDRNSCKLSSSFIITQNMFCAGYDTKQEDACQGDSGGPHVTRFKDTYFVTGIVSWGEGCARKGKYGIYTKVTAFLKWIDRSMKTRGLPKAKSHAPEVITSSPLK
- Sequence (P00742 41-179 partner limits assumed): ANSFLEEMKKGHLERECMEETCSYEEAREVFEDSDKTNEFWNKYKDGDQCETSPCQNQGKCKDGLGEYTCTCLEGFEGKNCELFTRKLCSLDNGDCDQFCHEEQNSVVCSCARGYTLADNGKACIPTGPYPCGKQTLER
- Measurement Protocol: biochemical
- Measurement Conditions: read-out: Kass Xa (converted)
Counter-ions that a name gives are not always drawn.
# reported Kd; entries follow
Measured Property: Kd (µM)

1. N=C(N)N1CCC(CCNC(=O)[C@@H]2CCCN2C(=O)[C@@H](CC2CCCCC2)NCC(=O)O)CC1 [Example 57]: 100
2. Nc1ccc(CNC(=O)[C@@H]2CCCN2C(=O)[C@H](N)Cc2ccccc2)cc1 [Example 13, D-Phe-Pro-p-NHCH2C6H4NH2·HCl]: 1020
3. N=C(N)c1cccc(CCNC(=O)[C@@H]2CCCN2C(=O)[C@@H]2NCC[C@@H]3CCCC[C@@H]32)c1 [Example 29, 1-Piq-Pro-m-NHCH2CH2-C6H4C(=NH)NH2·2HCl]: 50
4. N=C(N)c1ccc(CNC(=O)[C@@H]2CCCN2C(=O)[C@H](NCC(=O)O)C2CCCCC2)cc1 [Example 86]: 1.59
5. N=C(N)N1CCC(CNC(=O)[C@@H]2CCCN2C(=O)[C@@H](CC2CCCCC2)NCC(=O)O)CC1 [Example 56]: 5
6. Cn1c(C(=O)N[C@H](Cc2ccccc2)C(=O)N2CCC[C@H]2C(=O)NCCCCNC(=N)N)cc2ccccc21 [Example 4, monohydrochloride]: 175
7. N=C(N)NC/C=C/CNC(=O)[C@@H]1CCCN1C(=O)[C@H](N)Cc1ccccc1 (relative stereo) [Example 8]: 2630
8. N=C(N)c1cccc(CNC(=O)[C@@H]2CCCN2C(=O)[C@H](N)Cc2ccccc2)c1 [Example 16, D-Phe-Pro-m-NHCH2C6H4C(NH)NH2·0.75HCl]: 196
9. N=C(N)NCc1ccc(CNC(=O)[C@@H]2CCCN2C(=O)[C@H](N)Cc2ccccc2)cc1 [Example 9, D-Phe-Pro-p-NHCH2-C6H4CH2NHC(NH)NH2·2TFA]: 1720
10. CCS(=O)(=O)N[C@H](Cc1ccccc1)C(=O)N1CCC[C@H]1C(=O)NCCCc1ccc(C(=N)N)cc1 [Example 30]: 50
11. CCS(=O)(=O)N[C@H](Cc1ccccc1)C(=O)N1[C@H](C(=O)NCc2ccc(C(=N)N)cc2)C[C@@H]2CCCC[C@@H]21 [Example 45]: 0.667
12. CCS(=O)(=O)N[C@H](Cc1ccccc1)C(=O)N1CCC[C@H]1C(=O)NCCCCNC(=N)N [Example 1, EtS02-D-Phe-Pro-Agm·HCl]: 588
13. CCOC(=O)N[C@H](Cc1ccccc1)C(=O)N1CCC[C@H]1C(=O)NCCCCNC(=N)N [Example 3, EtOCO-D-Phe-Pro-Agm·HCl]: 476
14. Nc1ccc(CNC(=O)[C@@H]2CCCN2C(=O)[C@@H](CC2CCCCC2)NCC(=O)O)c(F)c1 [Example 64]: 100
15. CCC(CC)C(=O)N[C@@H](CCS(C)(=O)=O)C(=O)N1CCC[C@H]1C(=O)NCc1ccc(C(=N)N)cc1 [Example 91]: 143
16. CCS(=O)(=O)N[C@H](Cc1ccccc1)C(=O)N1CCC[C@H]1C(=O)NCCc1ccc(C(=N)N)cc1 [Example 26]: 100
17. N=C(N)c1ccc(CNC(=O)CN(CCc2ccccc2)C(=O)CNCC(=O)O)cc1 [Example 89]: 14.1
18. N=C(N)c1ccc(CNC(=O)[C@@H]2CCCN2C(=O)[C@@H]2NCC[C@@H]3CCCC[C@@H]32)cc1 [Example 18, 1-Piq-Pro-p-NHCH2C6H4C(NH)NH2·2HCl]: 4.76
19. NCc1cccc(CNC(=O)[C@@H]2CCCN2C(=O)[C@H](N)Cc2ccccc2)c1 [Example 11, D-Phe-Pro-m-NHCH2C6H4CH2NH2·HCl]: 14700
20. N=C(N)c1ccc(CNC(=O)[C@@H]2C[C@@H]3CCCC[C@@H]3N2C(=O)[C@@H]2NCC[C@@H]3CCCC[C@@H]32)cc1 [Example 42, D-1-Piq-cis-Ohi-p-NHCH2C6H4C(NH)NH2·2HCl]: 14.3

Reference source: patent EP0672658B1
